assay: Cytotoxicity against human HCT-116 cells assessed as cell growth inhibition incubated for 72 hrs by MTS assay; type: toxicity, cell-based
Parameter: GI50 at 72 h. Scope: all listed entries.

{"Structure notation": "CC[C@H](OC)[C@@H](C)[C@H]1O[C@@H]1[C@@H](O)[C@H](C)/C=C/C=C(\\C)[C@H]1OC(=O)C[C@@H](O)CC[C@@](C)(O)[C@@H](OC(C)=O)/C=C/[C@@H]1C", "Value units": "nM", "GI50 at 72 h": 143}
{"Structure notation": "CC[C@H](OC)[C@@H](C)[C@H]1O[C@@H]1[C@H](OC)[C@H](C)/C=C/C=C(\\C)[C@H]1OC(=O)C[C@H](O)CC[C@@](C)(O)[C@@H](OC(C)=O)/C=C/[C@@H]1C", "Value units": "nM", "GI50 at 72 h": 2.6}
{"Structure notation": "CC[C@H](OC)[C@@H](C)[C@H]1O[C@@H]1[C@H](O)[C@H](C)/C=C/C=C(\\C)[C@@H]1OC(=O)C[C@H](O)CC[C@@](C)(O)[C@@H](OC(C)=O)/C=C/[C@H]1C", "Value units": "nM", "GI50 at 72 h": 41300}
{"Structure notation": "CC[C@H](OC)[C@@H](C)[C@@H]1O[C@H]1[C@@H](O)[C@H](C)/C=C/C=C(\\C)[C@H]1OC(=O)C[C@H](O)CC[C@@](C)(O)[C@@H](OC(C)=O)/C=C/[C@@H]1C", "Value units": "nM", "GI50 at 72 h": 470}
{"Structure notation": "CC[C@@H](OC)[C@H](C)[C@H]1O[C@@H]1[C@@H](O)[C@H](C)/C=C/C=C(\\C)[C@H]1OC(=O)C[C@H](O)CC[C@@](C)(O)[C@@H](OC(C)=O)/C=C/[C@@H]1C", "Value units": "nM", "GI50 at 72 h": 285}
{"Structure notation": "CC[C@H](OC)[C@@H](C)[C@H]1O[C@@H]1[C@@H](O)[C@H](C)/C=C/C=C(\\C)[C@H]1OC(=O)C[C@H](O)CC[C@@](C)(O)[C@@H](OC(C)=O)/C=C/[C@@H]1C", "Value units": "nM", "GI50 at 72 h": 2.2}
{"Structure notation": "CC[C@H](OC)[C@@H](C)[C@H]1O[C@@H]1[C@@H](O)[C@H](C)/C=C/C=C(\\C)[C@H]1OC(=O)C[C@H](O)CC[C@@](C)(O)[C@H](OC(C)=O)/C=C/[C@@H]1C", "Value units": "nM", "GI50 at 72 h": 860}
{"Structure notation": "CC[C@H](OC)[C@@H](C)[C@H]1O[C@@H]1[C@@H](OC)[C@H](C)/C=C/C=C(\\C)[C@H]1OC(=O)C[C@H](O)CC[C@@](C)(O)[C@@H](OC(C)=O)/C=C/[C@@H]1C", "Value units": "nM", "GI50 at 72 h": 40.5}
{"Structure notation": "CC[C@H](OC)[C@@H](C)[C@H]1O[C@@H]1[C@H](O)[C@H](C)/C=C/C=C(\\C)[C@H]1OC(=O)C[C@H](O)CC[C@@](C)(O)[C@@H](OC(C)=O)/C=C/[C@@H]1C", "Value units": "nM", "GI50 at 72 h": 1.9}
{"Structure notation": "CC[C@H](OC)[C@@H](C)[C@H]1O[C@@H]1[C@H](O)[C@H](C)/C=C/C=C(\\C)[C@H]1OC(=O)C[C@H](O)CC[C@@](C)(O)[C@H](OC(C)=O)/C=C/[C@@H]1C", "Value units": "nM", "GI50 at 72 h": 588}
{"Structure notation": "CC[C@H](OC)[C@@H](C)[C@H]1O[C@@H]1[C@H](O)[C@H](C)/C=C/C=C(\\C)[C@H]1OC(=O)C[C@@H](O)CC[C@@](C)(O)[C@@H](OC(C)=O)/C=C/[C@@H]1C", "Value units": "nM", "GI50 at 72 h": 2.7}
